These data points were gathered from patent US20220204592A1.

- system_under_test: H7 hemagglutinin (A/Netherlands/219/2003) (influenza A virus A/Netherlands/219/2003 (H7N7))
- assay_procedure: ELISA on coated HA, relative Kd (4-parameter fit)
Measured Kd, listed per entry for reference.
Answers without a unit are incomplete; give the number and then its unit.

# binder, Kd
data = [
    ("Ab 004 (antibody, V domains shown) VH: QVQLLETGGGLVKPGQSLKLSCAASGFTFTSYAMHWVRQPPGKGLEWVAVVSYDGNYKYYADSVQGRFTISRDNSKNTLYLQMNSLRAEDTAVYYCAKDSRLRSLLYFEWLSQGYFNPWGQGTTLTVSS VL: DIVMTQSPDTLAVTLGERATIQCKSSQTVTFNYKNYLAWYQQKPGQPPKLLIYWASTRESGVPDRFSGSGSGTDFTLTITSLQAEDVAVYYCQQHYRTPPSFGQGTKLDIK", "0.073 nM"),
    ("Ab 037 (antibody, V domains shown) VH: EVQLLESGGGLVKPGQSLKLSCAASGFTFTSYAMHWVRQPPGKGLEWVAVVSYDGNYKYYADSVQGRFTISRDNSKNTLYLQMNSLRAEDTAVYYCAKDSRLRSLLYFEWLSQGYFNPWGQGTTLTVSS VL: DIQMTQSPSSLSASVGDRVTITCRSSQSITFNYKNYLGWYQQKPGKAPKLLIYWGSYLESGVPSRFSGSGSGTDFTLTISSLQPEDFATYYCQQHYRTPPSFGQGTKVEIK", "0.114 nM"),
    ("Ab 031 (antibody, V domains shown) VH: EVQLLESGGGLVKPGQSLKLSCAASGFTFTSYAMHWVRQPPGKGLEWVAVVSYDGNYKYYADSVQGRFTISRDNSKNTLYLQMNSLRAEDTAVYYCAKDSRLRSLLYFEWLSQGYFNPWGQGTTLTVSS VL: DIQMTQSPSSLSASVGDRVTITCRSSQSITFNYKNYLAWYQQKPGKAPKLLIYWGSYLESGVPSRFSGSGSGTDFTLTISSLQPEDFATYYCQQHYRTPPSFGQGTKVEIK", "0.091 nM"),
]

We next turn to a different binder, shown below.
stdin: Could you share which Kd value was measured for Ab 038 (antibody, V domains shown) VH: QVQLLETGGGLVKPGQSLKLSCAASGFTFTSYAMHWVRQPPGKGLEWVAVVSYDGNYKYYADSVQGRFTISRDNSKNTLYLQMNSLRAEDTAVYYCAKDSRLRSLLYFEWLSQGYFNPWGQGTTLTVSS VL: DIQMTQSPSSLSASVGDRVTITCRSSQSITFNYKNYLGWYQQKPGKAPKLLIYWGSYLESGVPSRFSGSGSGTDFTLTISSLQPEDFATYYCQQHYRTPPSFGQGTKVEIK ?
stdout: 0.119 nM
